Numbers sourced from ChEMBL document CHEMBL1132593.

target: UniProt P47936
Sequence (P47936 whole entry): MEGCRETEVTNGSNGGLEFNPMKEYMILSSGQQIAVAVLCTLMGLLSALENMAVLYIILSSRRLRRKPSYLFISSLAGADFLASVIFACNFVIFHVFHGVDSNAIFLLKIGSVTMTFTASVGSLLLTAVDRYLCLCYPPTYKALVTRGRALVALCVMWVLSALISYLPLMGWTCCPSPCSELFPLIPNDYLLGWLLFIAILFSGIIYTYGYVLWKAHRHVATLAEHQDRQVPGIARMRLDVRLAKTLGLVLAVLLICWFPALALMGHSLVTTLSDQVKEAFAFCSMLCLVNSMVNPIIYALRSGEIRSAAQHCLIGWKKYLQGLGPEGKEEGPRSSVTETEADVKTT
The label is Y for Ki below 1000 nM and N for Ki equal to or exceeding 1000 nM.

| smilesCode | assignedClass |
| --- | --- |
| Cc1c(C(=O)N2CCN(C)CC2)nn(-c2ccc(Cl)cc2Cl)c1-c1ccc(Br)cc1 | N |
| Cc1c(C(=O)NN2CCCCC2)nn(-c2ccc(Cl)cc2Cl)c1-c1ccccc1N | Y |
| Cc1c(C(=O)NCCO)nn(-c2ccc(Cl)cc2Cl)c1-c1ccc(Br)cc1 | N |
| Cc1c(C(=O)NN2CCCCC2)nn(-c2ccc(Cl)cc2Cl)c1-c1ccccc1 | Y |
| Cc1c(C(=O)NN2CCOCC2)nn(-c2ccc(Cl)cc2Cl)c1-c1ccc(Br)cc1 | N |
| Cc1c(C(=O)NN2CCCCC2)nn(-c2ccc(Cl)cc2Cl)c1-c1ccccc1I | Y |
| Cc1c(C(=O)NN2CCCCC2)nn(-c2ccc(Cl)cc2Cl)c1-c1ccc([N+](=O)[O-])cc1 | Y |

* * *

target: Cannabinoid receptor 1 (Rattus norvegicus)
Sequence (P20272 whole entry): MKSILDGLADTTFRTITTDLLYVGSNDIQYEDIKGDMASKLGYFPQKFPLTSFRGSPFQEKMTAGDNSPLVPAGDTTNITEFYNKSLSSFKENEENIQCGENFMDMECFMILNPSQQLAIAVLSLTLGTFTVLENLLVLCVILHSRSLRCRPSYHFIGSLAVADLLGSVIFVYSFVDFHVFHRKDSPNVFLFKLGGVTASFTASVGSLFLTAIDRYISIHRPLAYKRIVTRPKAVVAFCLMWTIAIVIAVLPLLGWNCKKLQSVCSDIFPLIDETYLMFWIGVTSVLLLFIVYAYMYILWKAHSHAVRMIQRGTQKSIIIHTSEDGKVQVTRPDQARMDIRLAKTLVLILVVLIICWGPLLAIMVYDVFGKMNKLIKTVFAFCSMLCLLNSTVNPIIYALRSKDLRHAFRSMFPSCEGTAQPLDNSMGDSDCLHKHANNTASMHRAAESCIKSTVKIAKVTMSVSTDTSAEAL
The label is yes for Ki below 80 nM and no for Ki equal to or exceeding 80 nM.

| smilesCode | assignedClass |
| --- | --- |
| CCc1c(C)c(C(=O)NN2CCCCC2)nn1-c1ccc(Cl)cc1Cl | no |
| Cc1c(C(=O)NN2CCCCC2)nn(-c2ccc(Cl)cc2Cl)c1-c1ccc(Br)cc1 | yes |
| Cc1c(C(=O)NC2CCCCC2)nn(-c2ccc(Cl)cc2Cl)c1-c1ccc(Br)cc1 | yes |
| Cc1c(C(=O)NN2CCCCC2)nn(-c2ccc(Cl)cc2Cl)c1-c1ccccc1I | yes |
| Cc1c(C(=O)NN2CCCCC2)nn(-c2ccc(Cl)cc2Cl)c1-c1ccc([N+](=O)[O-])cc1 | yes |
| Cc1c(C(=O)NN2CCCCC2)nn(-c2ccc(Cl)cc2Cl)c1-c1ccccc1N | no |

* * *

species: Cavia porcellus; experiment: Dissociation constant [100(nM)] in myenteric plexus-longitudinal muscle of guinea pig small intestine using the cannabinoid receptor agonist.; format: functional, organism-based
This listing pairs compounds with measured Kd.
measuredQuantity: Kd (nM)

| smilesCode | measuredQuantity | measuredValue |
| --- | --- | --- |
| Cc1c(C(=O)NN2CCCCC2)nn(-c2ccc(Cl)cc2Cl)c1-c1ccc(I)cc1 | Kd | 0.22 |
| Cc1c(C(=O)NN2CCCCC2)nn(-c2ccc(Cl)cc2Cl)c1-c1ccc(Cl)cc1 | Kd | 0.25 |
| Cc1c(C(=O)NN2CCCCC2)nn(-c2ccc(Cl)cc2Cl)c1-c1ccc(Br)cc1 | Kd | 0.32 |
| Cc1c(C(=O)NN2CCCCC2)nn(-c2ccc(Cl)cc2Cl)c1-c1ccccc1N | Kd | 11.2 |
| Cc1c(C(=O)NN2CCCCC2)nn(-c2ccc(Cl)cc2Cl)c1-c1ccc(N)cc1 | Kd | 2.63 |

* * *

species on record: Mus musculus; test: Dissociation constant [31.6(nM)] in mouse isolated vas deferens using the cannabinoid receptor agonist.; type: functional, organism-based
pKd: −log10 of the molar value.

| smilesCode | pKd |
| --- | --- |
| Cc1c(C(=O)NN2CCCCC2)nn(-c2ccc(Cl)cc2Cl)c1-c1ccccc1I | 8.11 |
| Cc1c(C(=O)NN2CCCCC2)nn(-c2ccc(Cl)cc2Cl)c1-c1ccc(I)cc1 | 9.30 |
| Cc1c(C(=O)NN2CCCCC2)nn(-c2ccc(Cl)cc2Cl)c1-c1ccc(Br)cc1 | 8.58 |
| Cc1c(C(=O)NN2CCCCC2)nn(-c2ccc(Cl)cc2Cl)c1-c1ccc(Cl)cc1 | 8.70 |

* * *

species on record: Mus musculus; assay: Dissociation constant [316(nM)] in mouse isolated vas deferens using the cannabinoid receptor agonist.; format: functional, organism-based
pKd: −log10 of the molar value.

| smilesCode | pKd |
| --- | --- |
| Cc1c(C(=O)NN2CCCCC2)nn(-c2ccc(Cl)cc2Cl)c1-c1ccc([N+](=O)[O-])cc1 | 8.27 |
| Cc1c(C(=O)NN2CCCCCC2)nn(-c2ccc(Cl)cc2Cl)c1-c1ccc(Br)cc1 | 8.17 |
| Cc1c(C(=O)NN2CCCCC2)nn(-c2ccc(Cl)cc2Cl)c1-c1ccccc1[N+](=O)[O-] | 7.60 |
| Cc1c(C(=O)NN2CCCCC2)nn(-c2ccc(Cl)cc2Cl)c1-c1ccc(N)cc1 | 7.37 |
| Cc1c(C(=O)NN2CCCCC2)nn(-c2ccc(Cl)cc2Cl)c1-c1ccccc1 | 7.55 |
